# Tested on: Nakaseomyces glabratus
# test.method.notes: Antifungal activity against Candida glabrata ATCC 90030 by broth dilution method
# Assay type: functional, organism-based
The source made the active and inactive calls. No cut-off for these calls is given here.
parameter: Activity

Worked examples, 5 compounds total:
{"compound": "C[C@H]1CC[C@@]2(OC1)OC1C[C@H]3[C@@H]4CC=C5C[C@@H](O)C[C@@H](O[C@@H]6OC[C@H](O)[C@H](O[C@@H]7OC[C@@H](O)[C@H](O)[C@H]7O)[C@H]6O)[C@]5(C)[C@H]4CC[C@]3(C)[C@H]1[C@@H]2C (stereo partly specified) [ANGUDRACANOSIDE F]", "tgt": "Nakaseomyces glabratus", "value": "inactive"}
{"compound": "C[C@H]1CC[C@@]2(OC1)OC1C[C@H]3[C@@H]4C(=O)C=C5C[C@@H](O)C[C@@H](O[C@@H]6OC[C@H](OS(=O)(=O)O)[C@H](O)[C@H]6O[C@@H]6O[C@@H](C)[C@H](O)[C@@H](O)[C@H]6O)[C@]5(C)[C@H]4CC[C@]3(C)[C@H]1[C@@H]2C (stereo partly specified)", "tgt": "Nakaseomyces glabratus", "value": "inactive"}
{"compound": "C[C@H]1CC[C@@]2(OC1)OC1C[C@H]3[C@@H]4CC=C5C[C@@H](O)C[C@@H](O[C@@H]6OC[C@H](O)[C@H](O)[C@H]6O[C@@H]6O[C@@H](C)[C@H](O)[C@@H](O)[C@H]6O)[C@]5(C)[C@H]4CC[C@]3(C)[C@H]1[C@@H]2C (stereo partly specified)", "tgt": "Nakaseomyces glabratus", "value": "inactive"}
{"compound": "C=C1CC[C@@]2(OC1)OC1C[C@H]3[C@@H]4CC=C5C[C@@H](O)C[C@@H](O[C@@H]6OC[C@H](OS(=O)(=O)O)[C@H](O)[C@H]6O[C@@H]6O[C@@H](C)[C@H](O)[C@@H](O)[C@H]6O)[C@]5(C)[C@H]4CC[C@]3(C)[C@H]1[C@@H]2C (stereo partly specified)", "tgt": "Nakaseomyces glabratus", "value": "inactive"}
{"compound": "C=C1CO[C@]2(C[C@H]1O)OC1C[C@H]3[C@@H]4CC=C5C[C@@H](O)C[C@@H](O[C@@H]6OC[C@H](OS(=O)(=O)O)[C@H](O)[C@H]6O[C@@H]6O[C@@H](C)[C@H](O)[C@@H](O)[C@H]6O)[C@]5(C)[C@H]4CC[C@]3(C)[C@H]1[C@@H]2C (stereo partly specified)", "tgt": "Nakaseomyces glabratus", "value": "inactive"}

## Task Note down Activity recorded for C=C1CC[C@@]2(OC1)OC1C[C@H]3[C@@H]4[C@@H](O)C=C5C[C@@H](O)C[C@@H](O[C@@H]6OC[C@H](OS(=O)(=O)O)[C@H](O)[C@H]6O[C@@H]6O[C@@H](C)[C@H](O)[C@@H](O)[C@H]6O)[C@]5(C)[C@H]4CC[C@]3(C)[C@H]1[C@@H]2C (stereo partly specified)
## Result inactive
